# protocolNotes: in vivo
# assayContext: C57BL/6, mouse, po, 10 mg/kg, RIF Cmax Plasma, RIF 10 mg/kg + TIM 200 mg/kg dosed 6 hours prior to RIF
measuredProperty: Cmax (ng/mL)
Give bare numbers, in ng/mL.

CO[C@H]1/C=C/O[C@@]2(C)Oc3c(C)c(O)c4c(O)c(c(/C=N/N5CCN(C)CC5)c(O)c4c3C2=O)NC(=O)/C(C)=C\C=C\[C@H](C)[C@H](O)[C@@H](C)[C@@H](O)[C@@H](C)[C@H](OC(C)=O)[C@@H]1C [RIF, rifampicin] yielded Cmax of 14900

====

# System: Mycobacterium tuberculosis Erdman strain (Mtb ATCC 35801)
# protocolNotes: Susceptibility testing (broth microdilution MIC) with or without TIM
# Format: cell-based
# assayContext: TIM 10 μg/ml
measuredProperty: in vitro effect of TIM on the activity of the drug against Mtb

{"columns": ["molecule", "valueObserved"],
 "data": [
  ["CO[C@H]1/C=C/O[C@@]2(C)Oc3c(C)c(O)c4c(O)c(c(/C=N/N5CCN(C6CCCC6)CC5)c(O)c4c3C2=O)NC(=O)/C(C)=C\\C=C\\[C@H](C)[C@H](O)[C@@H](C)[C@@H](O)[C@@H](C)[C@H](OC(C)=O)[C@@H]1C", "no in vitro effect"],
  ["CCc1cc(C(N)=S)ccn1 [ethionamide]", "no in vitro effect"],
  ["CC(=O)NC[C@H]1CN(c2ccc(N3CCOCC3)c(F)c2)C(=O)O1", "no in vitro effect"]
]}

====

# Tested on: Mycobacterium tuberculosis Erdman strain (Mtb ATCC 35801)
# protocolNotes: Susceptibility testing (broth microdilution MIC) with or without TIM
# Type: cell-based
# assayContext: TIM 10 μg/ml
measuredProperty: in vitro effect of TIM on the activity of the drug against Mtb

{"columns": ["compound", "studyTarget", "valueObserved"],
 "data": [
  ["COc1c(N2CCNC(C)C2)c(F)cc2c(=O)c(C(=O)O)cn(C3CC3)c12 (stereo not drawn)", "Mycobacterium tuberculosis Erdman strain (Mtb ATCC 35801)", "no in vitro effect"],
  ["CC(=O)NC[C@H]1CN(c2ccc(N3CCSCC3)c(F)c2)C(=O)O1", "Mycobacterium tuberculosis Erdman strain (Mtb ATCC 35801)", "no in vitro effect"],
  ["NNC(=O)c1ccncc1", "Mycobacterium tuberculosis Erdman strain (Mtb ATCC 35801)", "no in vitro effect"]
]}

====

# protocolNotes: in vivo
# assayContext: C57BL/6, mouse, po, 10 mg/kg, RIF AUCinf Plasma, RIF 10 mg/kg alone
measuredProperty: AUC(0-inf) (µg·h/mL)
One number for each entry, in µg·h/mL.

CO[C@H]1/C=C/O[C@@]2(C)Oc3c(C)c(O)c4c(O)c(c(/C=N/N5CCN(C)CC5)c(O)c4c3C2=O)NC(=O)/C(C)=C\C=C\[C@H](C)[C@H](O)[C@@H](C)[C@@H](O)[C@@H](C)[C@H](OC(C)=O)[C@@H]1C yielded AUC(0-inf) of 152

====

# protocolNotes: in vivo
# assayContext: C57BL/6, mouse, po, 10 mg/kg, RIF AUCinf Plasma, RIF 10 mg/kg + TIM 200 mg/kg dosed 6 hours prior to RIF
measuredProperty: AUC(0-inf) (µg·h/mL)
Give bare numbers, in µg·h/mL.

CO[C@H]1/C=C/O[C@@]2(C)Oc3c(C)c(O)c4c(O)c(c(/C=N/N5CCN(C)CC5)c(O)c4c3C2=O)NC(=O)/C(C)=C\C=C\[C@H](C)[C@H](O)[C@@H](C)[C@@H](O)[C@@H](C)[C@H](OC(C)=O)[C@@H]1C yielded AUC(0-inf) of 153
